B1: VPS39 (parent)
chain: LRLENNHCHIEESEHVLKKAHKYS

Variants of: B1
Test: protein stability index of a GFP-peptide fusion (GPS, HEK-293T) (PSI 1-6); higher = more stable;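 further: lentivirally expressed fusions sorted by FACS into six bins by GFP to DsRed ratio, PSI derived from sequencing read proportions per bin multiplied by bin number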
Settings: c terminus: a fixed tail appended
MEASURE: protein stability index

Recorded results for 5 variants are shown here.
> print(dat)
   mutation.descriptor                  measure  measured.value
1                 S13E  protein stability index            2.26
2                  H9V  protein stability index             2.4
3                 K19N  protein stability index            2.39
4                 K22M  protein stability index            1.62
5                 E14W  protein stability index            2.67

// batch mode: one protein stability index value per listed entry
1. H9D
2. L1P
3. Y23L

1: 2.68; 2: 3.79; 3: 2.7
